target: Histone-lysine N-methyltransferase NSD2 (Homo sapiens); assay: NSD2 histone methyltransferase activity blockers – biochemical, plate reader, single point, primary screen (AID 624260); conditions: NSD2-SET H3K36me1 DELFIA fluorescence, at 12.5 µM, stronger effect = higher value;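 also: inhibitors reduce the monomethyl H3K36 fluorescence signal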
Screen size: about 44,000 compounds; about 30 (0.07%) were called active. Inconclusive results (about 1%) are left out. This is one part of a sample in which actives are shown more often than they occur.
Experimental endpoint: inhibition (%)
Provide only the numeric value, understood in %.

- Smiles structure: "COc1ccc(NC(=O)N(C)C[C@@H]2OCc3ccccc3-c3c(n(C)c4ccccc34)C(=O)N([C@H](C)CO)C[C@H]2C)cc1"
  Assayed system: "Histone-lysine N-methyltransferase NSD2 (Homo sapiens)"
  inhibition, %: -10.2
- Smiles structure: "Cc1noc(C)c1NC(=O)N(C)C[C@@H]1OCCCC[C@H](C)Oc2ccc(NC(=O)C3CCCCC3)cc2C(=O)N([C@H](C)CO)C[C@@H]1C"
  Assayed system: "Histone-lysine N-methyltransferase NSD2 (Homo sapiens)"
  inhibition, %: 3.93
- Smiles structure: "COc1ccc(-c2cnc3c(c2)C(=O)N([C@@H](C)CO)C[C@@H](C)[C@H](CN(C)C)O3)cc1"
  Assayed system: "Histone-lysine N-methyltransferase NSD2 (Homo sapiens)"
  inhibition, %: 9.08
- Smiles structure: "O=C(C[C@H]1C[C@H]2c3cc(NC(=O)Nc4ccc(F)cc4)ccc3O[C@H]2[C@H](CO)O1)NCC1CC1"
  Assayed system: "Histone-lysine N-methyltransferase NSD2 (Homo sapiens)"
  inhibition, %: 5.06
- Smiles structure: "O=C(C[C@@H]1C[C@@H]2c3cc(NS(=O)(=O)c4ccc(F)cc4)ccc3O[C@@H]2[C@@H](CO)O1)NCc1ccncc1"
  Assayed system: "Histone-lysine N-methyltransferase NSD2 (Homo sapiens)"
  inhibition, %: 1.12

C[C@H](NC(=O)C[C@@H]1CC[C@H](NC(=O)CN2CCOCC2)[C@H](CO)O1)c1ccccc1 on Histone-lysine N-methyltransferase NSD2 (Homo sapiens) gives inhibition = -3.53

Test item C[C@@H]1CN([C@@H](C)CO)C(=O)Cc2cc(NC(=O)CCCCCC(=O)Nc3ccccc3N)ccc2O[C@H]1CN(C)Cc1ccc(Cl)c(Cl)c1 ; Histone-lysine N-methyltransferase NSD2 (Homo sapiens); reported inhibition was -4.04

---

molecular target: Histone-lysine N-methyltransferase NSD2 (Homo sapiens); experiment: NSD2 histone methyltransferase activity blockers – biochemical, plate reader, single point, primary screen (AID 624260); conditions: NSD2-SET H3K36me1 DELFIA fluorescence, at 12.5 µM, stronger effect = higher value;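 also: inhibitors reduce the monomethyl H3K36 fluorescence signal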
Among all 44,000 compounds or so, about 30 (0.07%) were called active. Roughly 1% stayed inconclusive and do not appear here. For the sample, actives were picked, then their nearest neighbours and some compounds at random.
Entries and their inhibition
Give the value in % but do not write % after it.

- Smiles structure: "COC(=O)C[C@@H]1C[C@H]2c3cc(NC(=O)CN(C)C)ccc3O[C@H]2[C@H](CO)O1"
  Experimental endpoint: "inhibition"
  Units of measure: "%"
  Endpoint result: 6.16
- Smiles structure: "C[C@H](O)C#Cc1ccc2c(c1)O[C@@H](CN(C)C(=O)C1CC1)[C@H](C)CN([C@H](C)CO)S2(=O)=O"
  Experimental endpoint: "inhibition"
  Units of measure: "%"
  Endpoint result: 3.98

Please find the next compound below.
Short answer for C[C@@H]1CN([C@H](C)CO)S(=O)(=O)c2ccc(C#CCN(C)C)cc2O[C@H]1CN(C)C(=O)CC1CC1 : inhibition was 2.71

---

target: Histone-lysine N-methyltransferase NSD2 (Homo sapiens) (UniProt O96028); assay: NSD2 histone methyltransferase activity blockers – biochemical, plate reader, single point, primary screen (AID 624260); conditions: NSD2-SET H3K36me1 DELFIA fluorescence, at 12.5 µM, stronger effect = higher value;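 also: inhibitors reduce the monomethyl H3K36 fluorescence signal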
Sequence (O96028 whole entry, looked up): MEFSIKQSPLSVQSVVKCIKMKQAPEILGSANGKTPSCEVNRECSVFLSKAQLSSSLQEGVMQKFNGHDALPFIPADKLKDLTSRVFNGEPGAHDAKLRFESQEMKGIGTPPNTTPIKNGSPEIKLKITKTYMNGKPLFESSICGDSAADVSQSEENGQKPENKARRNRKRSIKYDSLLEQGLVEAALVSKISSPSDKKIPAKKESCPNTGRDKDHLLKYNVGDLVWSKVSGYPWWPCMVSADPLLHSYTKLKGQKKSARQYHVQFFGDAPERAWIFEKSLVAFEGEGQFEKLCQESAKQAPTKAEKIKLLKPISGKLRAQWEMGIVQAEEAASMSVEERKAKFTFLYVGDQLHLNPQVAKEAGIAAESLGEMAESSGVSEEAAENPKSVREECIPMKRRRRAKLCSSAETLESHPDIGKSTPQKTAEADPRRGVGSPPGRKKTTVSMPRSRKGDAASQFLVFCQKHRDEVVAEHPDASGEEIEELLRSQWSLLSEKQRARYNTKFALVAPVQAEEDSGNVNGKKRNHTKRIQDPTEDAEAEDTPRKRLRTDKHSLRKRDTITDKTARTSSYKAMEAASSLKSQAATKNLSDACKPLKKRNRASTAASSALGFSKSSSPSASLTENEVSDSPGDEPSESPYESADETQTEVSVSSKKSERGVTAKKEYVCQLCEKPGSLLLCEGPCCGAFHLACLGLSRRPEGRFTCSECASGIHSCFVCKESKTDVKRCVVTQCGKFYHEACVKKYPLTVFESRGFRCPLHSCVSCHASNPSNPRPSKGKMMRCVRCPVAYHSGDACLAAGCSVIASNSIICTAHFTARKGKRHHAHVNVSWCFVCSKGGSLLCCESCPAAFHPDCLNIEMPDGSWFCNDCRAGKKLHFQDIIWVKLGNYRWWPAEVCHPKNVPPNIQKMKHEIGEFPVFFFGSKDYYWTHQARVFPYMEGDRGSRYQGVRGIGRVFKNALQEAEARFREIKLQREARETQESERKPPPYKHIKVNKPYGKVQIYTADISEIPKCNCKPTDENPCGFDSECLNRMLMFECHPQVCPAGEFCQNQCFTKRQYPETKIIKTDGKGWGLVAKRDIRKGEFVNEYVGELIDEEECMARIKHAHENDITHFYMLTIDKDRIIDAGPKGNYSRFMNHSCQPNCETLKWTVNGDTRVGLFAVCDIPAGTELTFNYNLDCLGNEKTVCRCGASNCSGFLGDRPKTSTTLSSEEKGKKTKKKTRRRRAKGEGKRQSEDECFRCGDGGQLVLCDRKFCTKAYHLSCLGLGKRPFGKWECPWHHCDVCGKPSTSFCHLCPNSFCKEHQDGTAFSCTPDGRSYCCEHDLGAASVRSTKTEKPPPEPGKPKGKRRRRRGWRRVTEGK
Among all 44,000 compounds or so, about 30 (0.07%) were called active. Inconclusive results (about 1%) are left out. The sample as a whole holds a higher share of actives than the screen did.
The reader will find reported inhibition values listed item by item below.
Return type: number; implicit unit %.

Worked examples follow.
- Smiles structure: "COCC#Cc1ccc2c(c1)O[C@@H](CN(C)S(C)(=O)=O)[C@H](C)CN([C@H](C)CO)S2(=O)=O"
  inhibition, %: -5.23
- Smiles structure: "CC(C)CC#Cc1ccc2c(c1)O[C@H](CN(C)C(=O)c1cccnc1)[C@@H](C)CN([C@H](C)CO)S2(=O)=O"
  inhibition, %: 0.112
- Smiles structure: "C[C@@H]1CCCCO[C@@H](CN(C)C(=O)Cc2ccccc2)[C@H](C)CN([C@@H](C)CO)C(=O)c2cc(NC(=O)Nc3ccc4c(c3)OCO4)ccc2O1"
  inhibition, %: -3.09
- Smiles structure: "Cc1ccc(-c2cnc3c(c2)C(=O)N([C@H](C)CO)C[C@@H](C)[C@H](CN(C)Cc2ccccc2C(=O)O)O3)cc1"
  inhibition, %: 12.9
- Smiles structure: "C/C=C/c1cnc2c(c1)C(=O)N([C@@H](C)CO)C[C@@H](C)[C@H](CN(C)C(=O)c1cnccn1)O2"
  inhibition, %: 0.45

Looking up CCCNC(=O)C[C@H]1C[C@@H]2c3cc(NC(=O)c4ccc5c(c4)OCO5)ccc3O[C@@H]2[C@@H](CO)O1 , I see its inhibition listed as 7.66

Entry COCC#Cc1cnc2c(c1)C(=O)N([C@H](C)CO)C[C@H](C)[C@H](CN(C)C(=O)Cc1cccnc1)O2 — recorded inhibition = -0.822

Note to self: inhibition recorded for C[C@H]1CN([C@@H](C)CO)C(=O)c2cc(-c3cccc(F)c3)cnc2O[C@@H]1CN(C)C(=O)c1ccccn1 was 3.24

Record C[C@@H]1CN([C@@H](C)CO)C(=O)Cc2cc(NC(=O)Nc3ccc4c(c3)OCO4)ccc2O[C@H]1CN(C)S(=O)(=O)c1ccc(F)cc1 , field inhibition: 5.36

Kindly note the recorded inhibition for C[C@H]1CN([C@@H](C)CO)C(=O)c2cc(-c3ccncc3)cnc2O[C@@H]1CN(C)C(=O)c1cccc(F)c1 , which is -0.363

---

biological target: Histone-lysine N-methyltransferase NSD2 (Homo sapiens) (UniProt O96028); test: NSD2 histone methyltransferase activity blockers – biochemical, plate reader, single point, primary screen (AID 624260); conditions: NSD2-SET H3K36me1 DELFIA fluorescence, at 12.5 µM, stronger effect = higher value;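 also: inhibitors reduce the monomethyl H3K36 fluorescence signal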
The campaign covered roughly 44,000 compounds. About 30 (0.07%) were called active. About 1% were inconclusive and are not listed. Many of the other results were omitted from the sample, so actives are more common in it than they were.
Experimental endpoint: inhibition (%)
Please respond with the number in % and leave the unit unwritten.

- Smiles structure: "CCCC#Cc1cnc2c(c1)C(=O)N([C@@H](C)CO)C[C@@H](C)[C@@H](CN(C)Cc1ccccc1F)O2"
  inhibition [%]: 4.92
- Smiles structure: "COc1ccc(CN(C)C[C@@H]2OCCCC[C@@H](C)Oc3ccc(NS(=O)(=O)c4ccc(F)cc4)cc3C(=O)N([C@@H](C)CO)C[C@H]2C)cc1"
  inhibition [%]: -2.7
- Smiles structure: "C[C@H]1CN([C@@H](C)CO)C(=O)c2cc(C3=CCCCC3)cnc2O[C@H]1CN(C)Cc1ccncc1"
  inhibition [%]: 3.39
- Smiles structure: "C[C@@H]1CN([C@@H](C)CO)S(=O)(=O)c2ccc(Br)cc2O[C@@H]1CN(C)C(=O)C1CCCCC1"
  inhibition [%]: -6.34
- Smiles structure: "Cc1noc(C)c1NC(=O)Nc1ccc2c(c1)CC(=O)N([C@@H](C)CO)C[C@@H](C)[C@H](CN(C)Cc1ccc(Oc3ccccc3)cc1)O2"
  inhibition [%]: -7.73
- Smiles structure: "CCC(=O)N(C)C[C@@H]1Oc2ncc(C3=CCCC3)cc2C(=O)N([C@H](C)CO)C[C@@H]1C"
  inhibition [%]: -1.76

Next up:
The reported inhibition value, Histone-lysine N-methyltransferase NSD2 (Homo sapiens) (UniProt O96028), for CCCN(C)C[C@H]1Oc2cc(C#CCC(C)C)ccc2S(=O)(=O)N([C@H](C)CO)C[C@H]1C reads 0.338

---

target: Histone-lysine N-methyltransferase NSD2 (Homo sapiens) (UniProt O96028); assay: NSD2 histone methyltransferase activity blockers – biochemical, plate reader, single point, primary screen (AID 624260); settings: NSD2-SET H3K36me1 DELFIA fluorescence, at 12.5 µM, stronger effect = higher value;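 also: inhibitors reduce the monomethyl H3K36 fluorescence signal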
Hit rate of the full screen: of about 44,000 compounds, about 30 (0.07%) were called active. Not shown: some 1% with an inconclusive outcome. This excerpt belongs to a sample that is enriched for actives.
Catalogue of molecules with associated inhibition
I only need the number, in %, no unit after it.

Sample records with inhibition:
- Smiles structure: "C[C@@H]1CN([C@H](C)CO)S(=O)(=O)c2ccc(C#CC(C)(C)O)cc2O[C@@H]1CN(C)Cc1ccccc1"
  Assayed system: "Histone-lysine N-methyltransferase NSD2 (Homo sapiens) (UniProt O96028)"
  inhibition [%]: -5.05
- Smiles structure: "CC(C)NC(=O)N(C)C[C@H]1Oc2cc(C#Cc3ccccn3)ccc2S(=O)(=O)N([C@H](C)CO)C[C@@H]1C"
  Assayed system: "Histone-lysine N-methyltransferase NSD2 (Homo sapiens) (UniProt O96028)"
  inhibition [%]: 4.46
- Smiles structure: "CC(/C=C/C(=O)NO)=C\\c1ccccc1OCc1ccc(COc2ccc3ccncc3c2)cc1"
  Assayed system: "Histone-lysine N-methyltransferase NSD2 (Homo sapiens) (UniProt O96028)"
  inhibition [%]: -5.12
- Smiles structure: "COc1cccc(-c2cnc3c(c2)C(=O)N([C@@H](C)CO)C[C@@H](C)[C@H](CN(C)C(=O)CN(C)C)O3)c1"
  Assayed system: "Histone-lysine N-methyltransferase NSD2 (Homo sapiens) (UniProt O96028)"
  inhibition [%]: 8.01
- Smiles structure: "CC(=O)N(C)C[C@H]1Oc2cc(C#CCN(C)C)ccc2S(=O)(=O)N([C@H](C)CO)C[C@H]1C"
  Assayed system: "Histone-lysine N-methyltransferase NSD2 (Homo sapiens) (UniProt O96028)"
  inhibition [%]: -0.922

Kindly consider the entry below.
Case Cc1noc(C)c1S(=O)(=O)Nc1ccc2c(c1)C(=O)N([C@H](C)CO)C[C@@H](C)[C@@H](CN(C)S(=O)(=O)c1ccc(Cl)cc1)O2 , Histone-lysine N-methyltransferase NSD2 (Homo sapiens) (UniProt O96028), inhibition recorded as -1.25

Data credit: PubChem BioAssay AID624260
